Measured Inhibition of individual entries
Test system: Plasmodium falciparum
assay: GSK_TCMDC: Inhibition of Plasmodium falciparum 3D7 in whole red blood cells, using parasite LDH activity as an index of growth. Test compounds present at 2uM
Format: functional
Give just the number in %; leave the unit off.

Here are 3 compounds together with their reported answers.
compound: Cc1cccc2nc(-c3ccc(-c4cccc(CN5CCN(CC6CCCN(C)C6)CC5)c4)s3)[nH]c12.O=C(O)C(F)(F)F (stereo not drawn)
experimental_target: Plasmodium falciparum
units: %
Inhibition: 100
//
compound: COc1ccc(Cl)cc1N1CCN(CCCNC(=O)c2ccc(-c3nc4cc(Cl)c(C)cc4[nH]3)s2)CC1
experimental_target: Plasmodium falciparum
units: %
Inhibition: 100
//
compound: CCc1cn(CC(=O)N(CCOc2ccc(-c3ccc(C(F)(F)F)cc3)cc2)CCN(CC)CC)c(SCc2ccc(F)cc2)nc1=O
experimental_target: Plasmodium falciparum
units: %
Inhibition: 95

Name the recorded Inhibition of the item `COc1ccc2ncc(F)c(CCN3CCC(NCc4cc(OC)c5c(c4)OCCO5)CC3)c2n1.Cl` in your answer.
100

Look up and state reported Inhibition for `O=C(O)C(F)(F)F.O=C1OC2(CCN(Cc3cccc(-c4ncc[nH]4)c3)CC2)CN1CCNCc1ccccc1`
94

Using the record for `Cc1cccc(Nc2nc(N)c3ccccc3n2)c1.Cl` , state its measured Inhibition.
99

Retrieve Inhibition measured for `Cl.O=C(Nc1ccc(NC2=NCCN2)cc1)c1ccc(C(=O)Nc2ccc(NC3=NCCN3)cc2)cc1` and print it.
91

Hello, please tell me recorded Inhibition for this one: `COc1ccccc1N1CCN(CCCCNC(=O)c2ccc(NC(=O)c3ccc(OC(F)(F)F)cc3)cc2)CC1.Cl`
100
